test system: MS2 coat protein; test: apparent KD of MS2 coat protein; designed switch direction (-1 OFF switch, 1 ON switch): -1; higher = weaker reporter binding; details: input ligand: FMN 200 uM
assay endpoint: apparent KD of MS2 coat protein (nM)
Respond with the bare value in nM.

Before answering, review these 4 worked examples.
CCCUUGUGAGGAUAUUUUUAAAAUGCUAACCACAAUUUUAUGAAGAAGGUACAUGAGGAUCACCCAUGUUUCUC [Tried to obey the law of the pack] (Eterna round: R97, puzzle: Exclusion 4) :: 20
UAAAAGCGAGGAUAUACAAACAGGUCCAAAACAUGUCUUGGACAUGAGGAUCACCCAUGUAGAAGGCGUAAAAG [Anleain] (Eterna round: R97, puzzle: Exclusion 2) :: 558
UAUGGUUAAGUCAGGAUAUACAAACAGAAAUCUGAGUAGAAGGGACAUGAGGAUCACCCAUGUAUGGUAGUGUU [Ex4 #56] (Eterna round: R97, puzzle: Brourd's mod of Exclusion 4) :: 48.6
GAUCCGAUUGUCAGGAUAUUCAAAACGGCGCAAAAGAAGAAGGGACAUGAGGAUCACCCAUGUAUACGCCACCA [Usisbima] (Eterna round: R97, puzzle: Brourd's mod of Exclusion 4) :: 36.7

Now take the following sequence into account.
Give the measured apparent KD of MS2 coat protein of CGCAUGUCAGGAUAUCGUGCAUACAACGAAAGUUCUAUGUGCGAGAAGGGACAUGAGGAUCACCCAUGUUAGCG [Omei Ex4 A9] (Eterna round: R97, puzzle: Exclusion 4) . 741

###

system: K4 kissing-loop RNA reporter; test: apparent KD of K4 kissing-loop reporter; higher = weaker reporter binding; conditions: Eterna round: R107; input ligand: FMN 200 uM
Form field: apparent KD of K4 kissing-loop reporter (one value per entry).
Respond with the bare value in nM.

Before answering, review these 8 worked examples.
GUGCGGCUAGUGAUGUUGGUUGCGUGGGAAGGAGCGCAGAAACAUGCAGGUAGGUCGCCCACACCUCUGAAAGGAGGUUAAUUCA [Diusdige] :: 200
AGUCUGUAUGACAUAAGUGAUGUUUAUGUUCGAGGACCGGUACGGCCGCCACUCGCAAAUGUAUGAUUUCACGUUUGUGCAAGUA [KL-XTryp-A #analogue] :: 196
AGUGGACGUGUUCGGAGUGAUGUUCCGGAUACCAGACACGAAAGUGUCCCUUGGCAGCCGGAGUGAUGUUCCGGCGUUCACUAAA [Omei KL Theo A Exc B v2] :: 646
UGAUACCAGACUGAUACCAGCCAGUGAUGUUGGCAAUAUCCAAGGUGAGUCAAAGACUCGGGCCCUUGGCAGCAGUCUGGUAUCU [TheoBX 7 #SwitchBubble #StaticStem] :: 146
CGCAGUGAUGUUGCGAGUUCAUUCAGGGAAGGAGCGCCACAGAUGGCAGGUAGGUCGCCCACGCAGUGAUGUUGUGUAUUCGGGU [Exclusion Arginine A GF 2] :: 202
AUUUUGGUUUAGAGUGAUGUUCCUUGUGUUCGAGGACCGGUACGGCCGCCACUCGGGUAGAAAAGAAAAGAAAUGUUUGAUUUUU [BDazzled - #10 SS Tryptophan A] :: 251
GCCUGAGCACGAAGGAGCGCCGUGACAGGUUACUGCCUUGGGCAGUGAUGUUGCUCAAUCUGGCAGGUAGGUCGCGUGCUCAGGC :: 165
GCUAUGGUAGGAAGGAGCGCUUAUUUAUUUUUACGAGUGAUGUUCGGUAGUAGAUAGUUAAAGCAGGUAGGUCGCCUACUAUAGC [Arginine B K4 16] :: 141

Give the measured apparent KD of K4 kissing-loop reporter of GGAUCUGCCAGUGAUGUUGGUUAAUAUAUCAAGGAUAUGACGAAAGUCAGAAGGUGAAAGACUGGACAAAGUCCAGUCGGAUCCA [KL-SSFMN-A20] . 237

Give the measured apparent KD of K4 kissing-loop reporter of UUUUAAAUAUCUGAUACCAGAGAAAAUAUAUGUAGUGAUGUUAUAUACAAAAUAAAUAAGCUCCCUUGGCAGCAGUAUUAAUUUU [AstrosExyTheB#1] . 655

###

Form field: apparent KD of K4 kissing-loop reporter (one value per entry).
test system: K4 kissing-loop RNA reporter; assay: apparent KD of K4 kissing-loop reporter; higher = weaker reporter binding; details: Eterna round: R107; input ligand: FMN 200 uM
Respond with the bare value in nM.

Before answering, review these 8 worked examples.
AGUGAUGUGGGAAGGAGCGCUAUAAGACUUCAGUGAUGUUGAAGUGCUGGUUUAGUGUUGUAGCAGGUAGGUCGCCUAGAUGUUA [KL-XARG-B11] :: 293
GGUAGCAUGGCGGCCGCCACUAUCAGGAGUGAUGUUCCAACGCAGAGCUUCAGCUAGUGUGUAAAUAGGACCGGGCCAUGCUACC :: 414
AUUCGUUUAUGUGAUACCAGACUUUGCAGUGAUGUUGCAUUAAUUAAAGAUGUUUAGUUUGUCCCUUGGCAGCACUAUUUAUUUA [JR_SSTheophyB_Sub002] :: 43.1
GGAUCCACCAGUGAUGUUGGAGAAAACUUCAAGGAUAUGACGAAAGUCAGAAGGUGGUAGACUGGGCAAAGUCCGGUCGGAUCCA [FmnA10 U29+G66] :: 543
GAUUUAGAGGCGGCCGCCACUAGUGAUGUUAGUGAUGUUUGAUACUGAAUAUAUCUGCGAGUAGAUAGGACCGGGCCAGAUGGAG [plmfmullin] :: 225
UGAUAGGACAGAAGGAGCGGUAGUGAUGUUACCAAAAGGGUAAGGUGUCAAAAGACACCCUGCCAGGUAGGUCGCUGUCCUAUCU :: 103
AAGUGUGUGGCGGCCGCCACUAGAAUCCAGUGAUGUUGGAGAUAUCACGUAAGUGAUAUCCAUCAUAGGACCGGGCCAUAUAGAA [Same State - Tryptophan B (Freestyle 18)] :: 675
GAUUCUGUUCGAAAGAACGGAAUCUCGGAAGGAGCGAGAGAAAUCUCAGGUAGGUCGCCGAAUUUUUGAUAGUGAUGUUAUCAUU [Arginine A K4 3] :: 432

Give the measured apparent KD of K4 kissing-loop reporter of GUACAUUGGAAACAAGAACAAAUAACCGAAGGAGCGCGUGAAAACGCAGGUAGGUCGCGGAAGCAGUGAUGUUGCAUUAGAGAUC [Same State Arginine A GF 16] . 79.2

Give the measured apparent KD of K4 kissing-loop reporter of UGUCAUUGGUCGGCCGCCACUUCGUAUGAAGUGAUGUUUUGUAGAUUGUGUUGAAAGGUAUGGUGAAGGACCGGGACCGAUGACU [FiskerMod 22 - Jieux - Same State - Tryptophan B] . 516

###

tested on: K4 kissing-loop RNA reporter; experiment: apparent KD of K4 kissing-loop reporter; higher = weaker reporter binding; settings: Eterna round: R107; input ligand: tryptophan 2.4 mM;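 further: bound reporter read as fluorescence of individual clusters on recovered sequencing chips by microscopy, with normalized cluster intensities fitted with a binding model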
assay endpoint: apparent KD of K4 kissing-loop reporter
Note: a bare number is incomplete; add the unit.

Before answering, review these 3 worked examples.
AGAACUGUCUGAGAUACCAGCCAAGGAGUGAUGUUCCGGCUCGACGAAACGUCGAGCCAUGGCCCUUGGCAGCUCAGACAGUUCA [Omei KL Theo B SS A v2] :: 102 nM
AAGUGAUGUUGUAGUGAUGUUGUGAUGUUGCAGGAUAUAUAGUGAUGUAGAAGGGUAUGUACAGAUUUUUUUUUUGAGUGAUGUU [ffdcmullin] :: 81.4 nM
AAAAUAAAAGCAGUCAUCGGAGUGAUGUUCCGAGGACCGGUACGGCCGCCACUCGACCAGACAAAGUCUGGAUGGCGAGACUGCA [#SwitchBubble 18 #K4Early] :: 85.6 nM

Give the measured apparent KD of K4 kissing-loop reporter of GUUGUAUACUGAAGGAGCGAGUAGUGGAAACAUAAACUCAUUGCGAGUGAUGUUCGCGGUACUCAGGUAGGUCGCGGUAAUCGUA [Exclusion Arginine B Gf 11] . 403 nM

Give the measured apparent KD of K4 kissing-loop reporter of AGACUACCACACUGUCAAUAGACAGUGGACUAGGAUAUGCUGAUAAGCAGAAGGAGUGAUGUUCCCAGGUAGUCAAUAAAAUAAU [FmnAX 13 G28+C66] . 246 nM

Give the measured apparent KD of K4 kissing-loop reporter of GUGAGGAUCCGAAGGAGCGUCCGCAAUCCAGUGAUGUUGGGUGUUGGUUAUAUUUAACGAGGACAGGUAGGUCGCGGAUUUUCAA [Same State Arginie B GF 22] . 159 nM

Give the measured apparent KD of K4 kissing-loop reporter of CGUAGCAGAUGAAGGAGCGGCUACCUGUAUCAGGCAACUGCCUGAGUGAUGUUCAGGUAUAGCCAGGUAGGUCGCAUCUGCUACG [Arg B Ex t9b] . 212 nM

Give the measured apparent KD of K4 kissing-loop reporter of AUGCGUGAUGCUCAAAGAGUAUCACCCGAUACCAGUAUGGAAACAUACCCUUGGCAGCGGGUAACUGCCCAGUGAUGUUGGACGC [Theophylline A K4 10] . 234 nM

Give the measured apparent KD of K4 kissing-loop reporter of GCACACUAGUAAACUAGUGUGUUAACUGAAGGAGCGUGAAUAAUCACAGGUAGGUCGCAGUUUGUCAGUGAUGUUGACACGAGUG [Arg A SS t2] . 179 nM

Give the measured apparent KD of K4 kissing-loop reporter of GAUUCUGUUCGAAAGAACGGAAUCUCGGAAGGAGCGAGAGAAAUCUCAGGUAGGUCGCCGAAUUUUUGAUAGUGAUGUUAUCAUU [Arginine A K4 3] . 397 nM

Give the measured apparent KD of K4 kissing-loop reporter of AGGUGGGACGUAGGAUAUCCCUAAUGAUUUACUUCCUGGUUGCUACGCUUCCAGUGAUGUUGGAAGGGAGAAGGACGGGCGAGUU [Riatbive] . 222 nM

Give the measured apparent KD of K4 kissing-loop reporter of UGUCAUUGGUCGGCCGCCACUUCGUAUGAAGUGAUGUUUUGUAGAUUGUGUUGAAAGGUAUGGUGAAGGACCGGGACCGAUGACU [FiskerMod 22 - Jieux - Same State - Tryptophan B] . 508 nM

Give the measured apparent KD of K4 kissing-loop reporter of AGUCCACUCUAAAGAGUGGACCUAAGGGAUACCAGUGAUGUUGGUCACCCUUGGCAGCCCUCUGUCAUCGAUAAAGAUGGCAGUA . 131 nM

Reference for the values: the supplement of paper PMC9170038
